# growth annotations
Test system: UACC-62 melanoma
Experiment: NCI-60 one-dose screen, 48 h (100 = growth as untreated, 0 = no growth, -100 = all killed)
Settings: 10 µM unless noted
Description: Growth inhibition of the UACC-62 human tumor cell line is measured as a screen for anti-cancer activity. Cells are grown in 96 well plates and exposed to the test compound for 48 hours. Compounds are tested at a single concentration, which is 10^-5 M for most compounds. The reported endpoint is percent growth (GI% or GIPRCNT), where numbers from 0 - 100% represent growth inhibition, and numbers from -100% - 0 represent cell death. For example, a value of 40 represents 60% growth inhibition. […]
The panel holds about 83,000 compounds, 20% with a hit somewhere; the sample as a whole holds those more often.
Give just the numeric value; % need not be written.

Output measured growth for this item: "COc1cccc(NC(=O)c2cccc(-c3cc(=O)c4c(OC)c(OC)c(OC)cc4o3)c2)c1"
62.1

Give a short answer stating reported growth for "Clc1ccc2c(c1)c(-c1ccccc1)nc1nncn12" .
113

----------
Tested on: SK-OV-3 ovarian
Assay: NCI-60 one-dose screen, 48 h
Conditions: 10 µM unless noted
Description: Growth inhibition of the SK-OV-3 human tumor cell line is measured as a screen for anti-cancer activity. Cells are grown in 96 well plates and exposed to the test compound for 48 hours. Compounds are tested at a single concentration, which is 10^-5 M for most compounds. The reported endpoint is percent growth (GI% or GIPRCNT), where numbers from 0 - 100% represent growth inhibition, and numbers from -100% - 0 represent cell death. For example, a value of 40 represents 60% growth inhibition. […]
Compounds without any hit were thinned out: in the full panel of roughly 83,000, 20% have a hit. Activity calls are given as the source filed them. Rule for the calls: active = growth percent below 10; inactive = the rest.
Permitted responses: label 1 for active, label 0 for inactive

Here's what some known entries look like.
>>> cat("Cn1c(COC(=O)N2CCCCC2)nc2c(N3CCOCC3)nc(-c3ccccc3)nc21")
"label 0"
>>> cat("COc1cc2oc(-c3cccc(C(=O)Nc4ccc(Cl)cc4)c3)cc(=O)c2c(OC)c1OC")
"label 0"
>>> cat("CCCCOc1ccc(/C=N/Nc2cc(C)nc3ccc(Cl)cc23)cc1")
"label 0"
>>> cat("C#CC(=O)Nc1cccc2c1cc(C)n2-c1nc2c(c(NCc3ccccc3)n1)CCCC2")
"label 1"
>>> cat("COc1cc2c(cc1[N+](=O)[O-])-c1ccc([N+](=O)[O-])cc1/C2=N\\O")
"label 0"

Query: recorded result category for "CC1(C)NCCC[C@]2(C)[C@H]3CC=C4[C@@H]5C[C@@](C)(CO)CC[C@]5(C)CC[C@@]4(C)[C@]3(C)CC[C@@H]12" in this test
label 0

So what was the verdict on Clc1ccc(C2CC(c3cccc(Nc4ccncc4)c3)=NN2c2ccc(Cl)cc2)cc1 (stereo unspecified) in this test?
label 0

----------
Test system: SW-620 colon
Experiment: NCI-60 one-dose screen, 48 h (100 = growth as untreated, 0 = no growth, -100 = all killed)
Settings: 10 µM unless noted
Experimental: Growth inhibition of the SW-620 human tumor cell line is measured as a screen for anti-cancer activity. Cells are grown in 96 well plates and exposed to the test compound for 48 hours. Compounds are tested at a single concentration, which is 10^-5 M for most compounds. The reported endpoint is percent growth (GI% or GIPRCNT), where numbers from 0 - 100% represent growth inhibition, and numbers from -100% - 0 represent cell death. For example, a value of 40 represents 60% growth inhibition. […]
The panel holds about 83,000 compounds, 20% with a hit somewhere; the sample as a whole holds those more often.
experimental.readout: growth (%)
Supply the numeric figure in %, leaving out any unit text.

>>> recorded_value("CO[C@@H]1[C@H](N(C)C(=O)c2ccccc2)C[C@@H]2O[C@]1(C)n1c3ccccc3c3c4c(c5c6ccccc6n2c5c31)C(=O)NC4=O")
18.6
>>> recorded_value("COc1ccc(-c2nc(N/N=C/c3ccco3)nc(N3CCOCC3)c2C#N)cc1")
89.8
>>> recorded_value("c1cnc2nc3c(cc2c1)oc1ccccc13")
99.4

Output growth of "CS(=O)(=O)OCCN(CCOS(C)(=O)=O)c1ccc(/C=N/Nc2ccc([N+](=O)[O-])cc2[N+](=O)[O-])cc1"
73.4

Origin of the recorded values: PubChem BioAssay (NCI)
